# Tested on: hN + hpA co-culture (H1 iNGN2 human neurons + human primary astrocytes);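 also: immunostained co-cultures imaged by high-content microscopy, Z-score per plate against mean and SD of 0.1% DMSO wells, compounds added on differentiation day 18, analysed day 21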
# measurement protocol: presynaptic density (SYNAPSIN1 puncta per MAP2 neurite area), Z-score vs DMSO controls; higher = more presynaptic puncta (synapse-promoting)
# run parameters: 3 µM; 72 h
Where a name gives a salt, the structure may show the parent alone.
Values of presynaptic density (Z-score) greater than or equal to -0.5 map to yes (1); values below map to no (0).

compound: C[C@@H]1O[C@@H](O[C@H]2C[C@@H](O)[C@]3(CO)[C@H]4[C@H](O)C[C@]5(C)[C@@H](C6=CC(=O)OC6)CC[C@]5(O)[C@@H]4CC[C@]3(O)C2)[C@H](O)[C@H](O)[C@H]1O
assigned category: no (0)
//
compound: O=c1[nH]c2ccc(Cl)cc2c(N[C@@H]2CN3CCC2CC3)c1-c1nc2ccccc2[nH]1
assigned category: no (0)
//
compound: O=[N+]([O-])C=Cc1ccc2c(c1)OCO2
assigned category: no (0)
//
compound: Cc1cc(SCc2sc(-c3ccc(C(F)(F)F)c(F)c3)nc2C)ccc1OCC(=O)O
assigned category: yes (1)
//
compound: C[C@](O)(COc1ccc(C#N)cc1)C(=O)Nc1ccc(C#N)c(C(F)(F)F)c1
assigned category: no (0)
//
compound: O=C1CC[C@@]2(O)[C@H]3Cc4ccc(O)c5c4[C@@]2(CCN3CC2CC2)[C@H]1O5 [Naltrexone HCl]
assigned category: yes (1)
//
compound: CCCN1CCO[C@@H]2c3cc(O)ccc3OC[C@H]21
assigned category: yes (1)
//
compound: COc1ccc(C(=O)N2CCCC2=O)cc1
assigned category: yes (1)
//
compound: CN1CCCCC1Cn1cc(C(=O)c2cc([N+](=O)[O-])ccc2I)c2ccccc21 (stereo not drawn)
assigned category: no (0)
//
compound: O=C(O)CNC(=O)c1c(O)c2ccccc2n(Cc2ccccc2)c1=O
assigned category: yes (1)
//
compound: CCN(CC)C(=O)c1ccc(C2=CC3(CCNCC3)Oc3cccc(O)c32)cc1
assigned category: no (0)
//
compound: C[C@@]12N[C@@H](Cc3ccccc31)c1ccccc12 [(-)-MK 801 maleate]
assigned category: yes (1)
//
compound: N[C@@H]1C[C@H]1c1ccccc1 [Tranylcypromine (2-PCPA) HCl]
assigned category: yes (1)
